FYI, the data here is from patent US7510847B2.

System tested: URAT1 (Homo sapiens)
Sequence (Q96S37 whole entry): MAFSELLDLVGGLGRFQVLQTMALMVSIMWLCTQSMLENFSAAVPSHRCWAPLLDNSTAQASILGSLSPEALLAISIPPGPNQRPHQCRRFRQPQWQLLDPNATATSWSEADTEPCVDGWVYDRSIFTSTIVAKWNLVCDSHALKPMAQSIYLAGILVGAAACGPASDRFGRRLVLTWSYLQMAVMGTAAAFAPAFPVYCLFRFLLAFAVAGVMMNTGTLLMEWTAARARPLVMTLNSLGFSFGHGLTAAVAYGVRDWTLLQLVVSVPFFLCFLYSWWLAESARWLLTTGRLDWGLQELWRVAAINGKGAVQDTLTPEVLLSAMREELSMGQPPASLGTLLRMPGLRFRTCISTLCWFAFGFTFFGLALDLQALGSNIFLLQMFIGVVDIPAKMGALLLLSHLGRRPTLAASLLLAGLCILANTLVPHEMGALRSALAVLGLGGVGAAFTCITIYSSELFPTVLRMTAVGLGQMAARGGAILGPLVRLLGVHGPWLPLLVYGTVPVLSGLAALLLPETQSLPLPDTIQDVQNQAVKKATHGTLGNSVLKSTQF
Assay info: inhibition of [14C] uric acid uptake by oocytes injected with URAT1 cRNA
Observed property: IC50

Kindly note the recorded IC50 for CCCCc1nc(Cl)c(CO)n1Cc1ccc(-c2ccccc2-c2nn[nH]n2)cc1 [Losartan] , which is ~20 µM
